Each entry below carries its recorded growth.
# Tested on: LOX IMVI melanoma
# protocol-notes: NCI-60 one-dose screen, 48 h (100 = growth as untreated, 0 = no growth, -100 = all killed)
# condition-description: 10 µM unless noted
About 83,000 compounds went through this panel and 20% of them were active in at least one assay; those are over-represented in the sample as a whole.
endpoint-name: growth (%)

{"molecule": "NNc1ncnc2sc3c(c12)CCN(Cc1ccccc1)C3", "system-under-test": "LOX IMVI melanoma", "measure-unit": "%", "test-value": 39.7}
{"molecule": "CS(=O)(=O)Nc1cc(-c2ccc3ncnc(N4CCc5cc(F)c(Cl)cc54)c3c2)cnc1Cl", "system-under-test": "LOX IMVI melanoma", "measure-unit": "%", "test-value": -29.2}
{"molecule": "COc1ccc(/C=C/C(=O)c2ccc(S(=O)(=O)NCCNc3nc(N(C)C)nc(N4CCOCC4)n3)cc2)cc1", "system-under-test": "LOX IMVI melanoma", "measure-unit": "%", "test-value": 79.7}
{"molecule": "COC(=O)c1c(C(=O)OC)c2c3ccccc3c3ccccc3n2c1C(=O)C(F)(F)F", "system-under-test": "LOX IMVI melanoma", "measure-unit": "%", "test-value": 87.7}
{"molecule": "CN(C)C(=O)c1cc(-c2ccc3ncnc(N4CCc5cc(F)c(Cl)cc54)c3c2)cnc1N", "system-under-test": "LOX IMVI melanoma", "measure-unit": "%", "test-value": -69.3}
{"molecule": "O=C(Nc1ccc(Cl)c(C(F)(F)F)c1)N1CCN(c2cc(-c3cn(-c4ccccc4)nc3-c3cccc(O)c3)ccn2)CC1", "system-under-test": "LOX IMVI melanoma", "measure-unit": "%", "test-value": -76.9}
{"molecule": "CS(=O)(=O)Nc1cccc(-n2cnc3cc(-c4ccc(O)cc4)ccc32)c1", "system-under-test": "LOX IMVI melanoma", "measure-unit": "%", "test-value": 41.9}
{"molecule": "Clc1ccccc1Nc1nnc(-c2c[nH]c3ccccc23)o1", "system-under-test": "LOX IMVI melanoma", "measure-unit": "%", "test-value": 15.5}
{"molecule": "COc1ccc(-c2nc3ccc(-c4nnc(SCC(=O)Nc5ccc(/C(C)=N\\O)cc5)o4)cc3[nH]2)cc1", "system-under-test": "LOX IMVI melanoma", "measure-unit": "%", "test-value": 33.8}
{"molecule": "COc1ccc(Nc2nnc(-c3c[nH]c4ccccc34)o2)cc1", "system-under-test": "LOX IMVI melanoma", "measure-unit": "%", "test-value": 71.6}
{"molecule": "Nc1nn2c(-c3cc4ccccc4oc3=O)ccnc2c1N=Nc1ccccc1", "system-under-test": "LOX IMVI melanoma", "measure-unit": "%", "test-value": 34}
{"molecule": "C#CCCCNCCNc1ccnc2cc(Cl)ccc12", "system-under-test": "LOX IMVI melanoma", "measure-unit": "%", "test-value": 40.1}
{"molecule": "CC(C)(C)OC(=O)N1C/C(=C\\c2ccc(F)cc2)C(=O)/C(=C/c2ccc(F)cc2)C1", "system-under-test": "LOX IMVI melanoma", "measure-unit": "%", "test-value": -100}
{"molecule": "COC(=O)c1cc(C(=O)C(F)(F)F)n2c3ccccc3c3ccccc3c12", "system-under-test": "LOX IMVI melanoma", "measure-unit": "%", "test-value": 77.2}
{"molecule": "CC1=C(C(=O)OCc2ccccc2)C(c2ccc(N(C)C)cc2)n2c(nc3ccccc32)N1 (centres undefined)", "system-under-test": "LOX IMVI melanoma", "measure-unit": "%", "test-value": 75.7}
{"molecule": "CN(C)c1nc(NCCNS(=O)(=O)c2ccc(C3=Nc4c(N)nc(N)nc4NC(c4ccc(Cl)cc4)C3)cc2)nc(N2CCOCC2)n1 (centres undefined)", "system-under-test": "LOX IMVI melanoma", "measure-unit": "%", "test-value": -2.54}
{"molecule": "C[C@H]1[C@@H](CC(=O)N[C@@H](Cc2coc3ccccc23)B(O)O)O[C@@H]2OC3(C)CC[C@H]4[C@H](C)CC[C@@H]1[C@@]24O3", "system-under-test": "LOX IMVI melanoma", "measure-unit": "%", "test-value": -72.7}
{"molecule": "CCc1ccccc1-c1nc(CN[C@@H]2C[C@@H]3C[C@H]([C@H]2C)C3(C)C)c(C)o1", "system-under-test": "LOX IMVI melanoma", "measure-unit": "%", "test-value": -94.4}
{"molecule": "COc1sc(/C=N/NC(=O)c2[nH]c3ccc(Br)cc3c2-c2ccccc2)cc1Cl", "system-under-test": "LOX IMVI melanoma", "measure-unit": "%", "test-value": -91.7}

---

# System: K-562 leukemia
# protocol-notes: NCI-60 one-dose screen, 48 h (100 = growth as untreated, 0 = no growth, -100 = all killed)
# condition-description: 10 µM unless noted
Compounds without any hit were thinned out: in the full panel of roughly 83,000, 20% have a hit.
# binarize growth: threshold 70% inclusive, high side 1.0, low side 0.0

{"compound": "O=C1NC(=S)/C(=C/c2cn(-c3ccccc3)nc2-c2ccccc2)S1", "class": 0.0}
{"compound": "CN(CCSSCCN1CCOCC1)C(=O)Oc1cc2c(c3ccccc13)[C@H](CCl)CN2C(=O)c1cc2cc(OCCCN3CCC3)ccc2[nH]1", "class": 0.0}
{"compound": "Cc1ccc2nc(COc3ccc(C(=O)NNC(=O)Nc4ccc(Cl)c(C(F)(F)F)c4)cc3)[nH]c2c1", "class": 0.0}
{"compound": "CCCCNc1ccc2c3c(cccc13)C(=O)N(NCC(O)COc1ccc3c(C)cc(=O)oc3c1)C2=O (stereo not given)", "class": 1.0}

---

# Test system: T-47D breast
# protocol-notes: NCI-60 one-dose screen, 48 h
# condition-description: 10 µM unless noted
# Protocol: Growth inhibition of the T-47D human tumor cell line is measured as a screen for anti-cancer activity. Cells are grown in 96 well plates and exposed to the test compound for 48 hours. Compounds are tested at a single concentration, which is 10^-5 M for most compounds. The reported endpoint is percent growth (GI% or GIPRCNT), where numbers from 0 - 100% represent growth inhibition, and numbers from -100% - 0 represent cell death. For example, a value of 40 represents 60% growth inhibition. […]
About 83,000 compounds went through this panel and 20% of them were active in at least one assay; those are over-represented in the sample as a whole. Active and inactive are the calls of the source. The calls were made as follows: active = growth percent below 10; inactive = the rest.
Outcome codes: yes (active), no (inactive)

{"compound": "COc1cc(NC(=O)CSc2nnc(-c3ccc(-c4nc5ccc(Cl)cc5[nH]4)cc3)o2)cc(OC)c1OC", "class": "no"}
{"compound": "Cc1ccc(Nc2nnc(-c3c[nH]c4ccccc34)o2)c(C)c1", "class": "no"}
{"compound": "COc1cccc(/C=C/c2nc3ccccc3c(=O)n2CC(=O)Nc2ccccc2)c1", "class": "no"}
{"compound": "CC(=O)c1ccc2c(N)c(C(=O)Nc3ccc(C(F)(F)F)cc3)sc2n1", "class": "no"}
{"compound": "COc1ccc(-c2nc3ccc(-c4nnc(SCc5ccccc5)o4)cc3[nH]2)cc1OC", "class": "no"}
{"compound": "COc1ccc([C@H]2C(C(=O)c3ccc(Cl)cc3)C3(N[C@@H]2c2ccccc2)C(=O)Nc2ccccc23)cc1 (stereo partly specified)", "class": "no"}
{"compound": "O=C(N/N=C/c1occc1Br)c1[nH]c2ccc(Br)cc2c1-c1ccccc1", "class": "yes"}
{"compound": "C/C(=N/O)c1ccc(NC(=O)CSc2nnc(-c3ccc4nc(-c5ccc(Cl)cc5)[nH]c4c3)o2)cc1", "class": "no"}
{"compound": "Cc1ccc(C2CC(c3ccc(NC(=O)Nc4ccccc4)cc3)=NN2c2ccc(S(N)(=O)=O)cc2)cc1 (stereo unspecified)", "class": "yes"}
{"compound": "COc1ccc(N=Nc2c(N)nn3c(-c4cc5cc(Br)ccc5oc4=O)ccnc23)cc1", "class": "no"}
{"compound": "COc1ccc(NC(=O)Nc2nc3ccc([N+](=O)[O-])cc3s2)cc1", "class": "yes"}
{"compound": "CS(=O)(=O)Nc1cncc(-c2ccc3ncnc(NCc4ccccc4)c3c2)c1", "class": "yes"}
{"compound": "O=Cc1cncc(-c2ccc3ncnc(N4CCc5cc(F)c(Cl)cc54)c3c2)c1", "class": "no"}
{"compound": "Cc1ccccc1Nc1nnc(-c2c[nH]c3ccccc23)o1", "class": "no"}
{"compound": "c1n[nH]cc1-c1nc2ccc3[nH]ncc3c2c2c1CC1(CCOCC1)CC2", "class": "no"}
{"compound": "COc1ccc(-c2cc(-c3cc(OC)c(OC)c(OC)c3)[nH]c(=O)c2C#N)cc1", "class": "no"}
{"compound": "CCCCNc1ccc2c3c(cccc13)C(=O)N(c1cccc(-c3nn(-c4ccccc4)cc3-c3nc4ccccc4s3)c1)C2=O", "class": "no"}
{"compound": "CC(C)(C)c1cc(-c2cc(-c3ccccc3)[nH]c(=O)c2C#N)cc(C(C)(C)C)c1", "class": "no"}
{"compound": "COc1ccc(NC(=O)Cn2c(/C=C/c3cccc(OC)c3)nc3ccccc3c2=O)cc1", "class": "yes"}
{"compound": "O=C(NC(=S)N1CCN(c2ncnc3c2cnn3-c2ccccc2)CC1)c1ccc(Br)cc1", "class": "no"}
{"compound": "N#Cc1c(-c2ccc(F)cc2)nc(SCc2ccc(F)cc2)nc1N1CCNCC1", "class": "yes"}
